Hi there, I'd appreciate the recorded MIC for every entry that follows.
# System: Mycobacterium tuberculosis
# PROTOCOL NOTES: Antimycobacterial activity against Mycobacterium tuberculosis H37Rv after […] by microplate alamar
# Type: functional
Answers are plain numbers, in µM.

compound=CCOC(=O)c1cc(-c2cccc(NC(=O)c3cccc(C(F)(F)F)c3)c2)on1 test_system="Mycobacterium tuberculosis" measurement_units=µM assay_result=1.4
compound=CCOC(=O)c1cc(-c2cccc(OCc3ccc(F)c(F)c3)c2)[nH]n1 test_system="Mycobacterium tuberculosis" measurement_units=µM assay_result=32
compound=CCOC(=O)c1cc(-c2cccc(OCc3cccc(F)c3F)c2)on1 test_system="Mycobacterium tuberculosis" measurement_units=µM assay_result=1.6
compound=CCOC(=O)c1cc(-c2cccc(OCc3ccccc3Cl)c2)on1 test_system="Mycobacterium tuberculosis" measurement_units=µM assay_result=0.9
compound=CCOC(=O)c1cc(-c2cccc(OCc3cccc(Br)c3)c2)on1 test_system="Mycobacterium tuberculosis" measurement_units=µM assay_result=0.8
compound=CO[C@H]1/C=C/O[C@@]2(C)Oc3c(C)c(O)c4c(O)c(c(/C=N/N5CCN(C)CC5)c(O)c4c3C2=O)NC(=O)/C(C)=C\C=C\[C@H](C)[C@H](O)[C@@H](C)[C@@H](O)[C@@H](C)[C@H](OC(C)=O)[C@@H]1C test_system="Mycobacterium tuberculosis" measurement_units=µM assay_result=0.1

Each of the following entries comes with a recorded value; kindly state MIC for each.
1. CCOC(=O)c1cc(-c2cccc(OCc3cccc([N+](=O)[O-])c3)c2)on1
2. CCOC(=O)c1cc(-c2cccc(OCc3cccc(OC)c3)c2)on1
3. CCOC(=O)c1cc(-c2cccc(OCc3ccc(Cl)c(Cl)c3)c2)on1
4. CCOC(=O)c1cc(-c2cccc(OCc3cc(F)ccc3F)c2)on1
5. NNC(=O)c1ccncc1
6. CCOC(=O)c1cc(-c2cccc(OCc3ccc(F)cc3F)c2)on1

stdout:
0.6
2.1
2.7
0.9
0.5
1

Each of the following entries comes with a recorded value; kindly state MIC for each.
1. CCOC(=O)c1cc(-c2cccc(O)c2)on1
2. CCOC(=O)c1ccc(COc2cccc(-c3cc(C(=O)OCC)no3)c2)cc1
3. CCOC(=O)c1cc(-c2cccc(OCc3cccc(OC(F)(F)F)c3)c2)on1
4. CCOC(=O)c1cc(-c2cccc(Oc3cccc(C(F)(F)F)c3)c2)on1

stdout:
[7.3, 0.4, 0.7, 1]

Each of the following entries comes with a recorded value; kindly state MIC for each.
1. CCOC(=O)c1cc(-c2cccc(OCc3ccc(F)cc3)c2)on1
2. CCOC(=O)c1cc(-c2cccc(OCc3cccc(C)c3)c2)on1
3. CCOC(=O)c1cc(-c2ccc(NCc3cccc(C(F)(F)F)c3)cc2)on1
4. CCOC(=O)c1cc(-c2cccc(OCc3cccc(C#N)c3)c2)on1

stdout:
[1.8, 1.2, 0.6, 0.6]

Each of the following entries comes with a recorded value; kindly state MIC for each.
1. CCOC(=O)c1cc(-c2cccc(OCc3ccccc3C(F)(F)F)c2)on1
2. CCOC(=O)c1cc(-c2cccc(OCc3cc(F)cc(F)c3)c2)on1
3. CCOC(=O)c1cc(-c2cccc(OCc3ccc(F)c(F)c3F)c2)on1
4. CCOC(=O)c1cc(-c2cccc(OCc3cc(F)ccc3Cl)c2)on1

stdout:
1.5
4.4
0.9
0.9

Each of the following entries comes with a recorded value; kindly state MIC for each.
1. O=[N+]([O-])c1cn2c(n1)OC[C@@H](OCc1ccc(OC(F)(F)F)cc1)C2
2. CCOC(=O)c1cc(-c2cccc(OCc3ccc(F)c(F)c3)c2)on1
3. CCOC(=O)c1cc(-c2cccc(OCc3cccc(N)c3)c2)on1
4. CCOC(=O)c1cc(-c2cccc(OCc3ccccc3[N+](=O)[O-])c2)on1
5. CCOC(=O)c1cc(-c2cccc(OCc3c(F)ccc(F)c3F)c2)on1
6. CCOC(=O)c1cc(-c2cccc(OCc3ccccc3)c2)on1
7. CCOC(=O)c1cc(-c2ccc(C(O)c3cccc(OC)c3)cc2)on1 (configuration not stated)

stdout:
[0.3, 0.6, 1.5, 1.5, 1, 1.2, 2.8]

Each of the following entries comes with a recorded value; kindly state MIC for each.
1. CCOC(=O)c1cc(-c2cccc(OCc3cccc(C(F)(F)F)c3F)c2)on1
2. CCOC(=O)c1cc(-c2cccc(OCc3cccc(Cl)c3)c2)on1
3. CCOC(=O)c1cc(-c2cccc(OCc3ccc(C(F)(F)F)cc3)c2)on1
4. CCOC(=O)c1cc(-c2cccc(OCC(=O)N3CCOCC3)c2)on1
5. CCOC(=O)c1cc(-c2cccc(OCc3cccc(F)c3)c2)on1
6. CCOC(=O)c1cc(-c2cccc(OCc3cccc(C(F)(F)F)c3)c2)on1
7. CCOC(=O)c1cc(-c2cccc(OCc3c(F)cccc3F)c2)on1

stdout:
1: 0.6; 2: 1; 3: 0.4; 4: 13.8; 5: 0.8; 6: 0.6; 7: 1.2

Each of the following entries comes with a recorded value; kindly state MIC for each.
1. CCOC(=O)c1cc(-c2cccc(OCc3ccccc3F)c2)on1
2. CCOC(=O)c1cc(-c2cccc(NCc3cccc(C(F)(F)F)c3)c2)on1

stdout:
1.1
1.1

---

# Test system: Vero
# PROTOCOL NOTES: Cytotoxicity against african green monkey Vero cells after 72 hrs
# Assay type: cell-based, Chlorocebus sabaeus
# CONDITION SET: Chlorocebus sabaeus, Vero, 72 h
pIC50: −log10 of the molar value.
QUANTITY: pIC50

// below: answered compounds
structure_notation=CCOC(=O)c1cc(-c2cccc(OCc3cccc(F)c3)c2)on1 test_system=Vero quantity=pIC50 assay_result="< 3.89"
structure_notation=CCOC(=O)c1cc(-c2ccc(NCc3cccc(C(F)(F)F)c3)cc2)on1 test_system=Vero quantity=pIC50 assay_result="< 3.89"
structure_notation=CCOC(=O)c1ccc(COc2cccc(-c3cc(C(=O)OCC)no3)c2)cc1 test_system=Vero quantity=pIC50 assay_result="< 3.89"
structure_notation=CCOC(=O)c1cc(-c2cccc(OCc3cccc(C(F)(F)F)c3)c2)on1 test_system=Vero quantity=pIC50 assay_result="< 3.89"
structure_notation=CCOC(=O)c1cc(-c2cccc(OCc3cccc(C)c3)c2)on1 test_system=Vero quantity=pIC50 assay_result="< 3.89"

Each of the following entries comes with a recorded value; kindly state pIC50 for each.
1. CCOC(=O)c1cc(-c2cccc(OCc3cc(F)cc(F)c3)c2)on1
2. CCOC(=O)c1cc(-c2cccc(OCc3ccccc3Cl)c2)on1
3. CCOC(=O)c1cc(-c2cccc(OCc3cccc(Br)c3)c2)on1
4. CCOC(=O)c1cc(-c2cccc(OCc3c(F)cccc3F)c2)on1
5. CCOC(=O)c1cc(-c2cccc(OCc3ccccc3)c2)on1

stdout:
1: < 3.89; 2: < 3.89; 3: < 3.89; 4: < 3.89; 5: < 3.89

stdin: Give a short answer stating reported pIC50 for "CCOC(=O)c1cc(-c2cccc(OCc3cccc(C(=O)N4CCOCC4)c3)c2)on1" .
stdout: < 3.89

Attribution: ChEMBL document CHEMBL1156795
